Tgt: T1, corticotropin releasing factor 2 receptor
T1 sequence (Q13324 whole entry, species assumed, looked up): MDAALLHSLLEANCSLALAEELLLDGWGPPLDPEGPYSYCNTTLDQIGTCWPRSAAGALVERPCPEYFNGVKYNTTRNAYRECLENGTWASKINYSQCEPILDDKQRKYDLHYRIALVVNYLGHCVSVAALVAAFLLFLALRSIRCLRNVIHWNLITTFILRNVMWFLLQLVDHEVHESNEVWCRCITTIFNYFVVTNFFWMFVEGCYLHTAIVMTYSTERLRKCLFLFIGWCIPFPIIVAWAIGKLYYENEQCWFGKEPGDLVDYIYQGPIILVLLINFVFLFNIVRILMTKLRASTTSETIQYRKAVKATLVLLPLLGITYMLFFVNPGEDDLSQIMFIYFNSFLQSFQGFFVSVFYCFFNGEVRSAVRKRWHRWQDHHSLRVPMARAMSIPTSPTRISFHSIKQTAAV
Experimental details: cell-based or functional assay
Ends that are not written are not given here.
Property: CRF2R EC50

| Binder | CRF2R EC50 |
| --- | --- |
| IVLSLDVPIGLLQILLEIEKQEKEKQQAANNRLLLDTI-NH2 [SEQ ID NO 158] | 6.37 nM |
| ZGPPISIDLPLILLRKMIEIEKQEKEKQQAANNRLLLDTI (C-terminal amide) [SEQ ID NO 194] | 5 nM |
| ZGPPISIDLPTGLLRKMIEIEKQEKEKQQAANNRLLLDTI (C-terminal amide) [SEQ ID NO 73] | > 100 nM |

Could you tell me which CRF2R EC50 is on file for ZGPPISIDLPLHLLRKMIEIEKQEKEKQQATTNARILARV (C-terminal amide) [SEQ ID NO 145] ?
7.8 nM

Could you tell me which CRF2R EC50 is on file for ZGPPISIDLPHWLLRKMIEIEKQEKEKQQAANNRLLLDTI (C-terminal amide) [SEQ ID NO 186] ?
25.1 nM

Could you tell me which CRF2R EC50 is on file for ZGPPISIDLPIGLLRKMIEIEKQEKEKQQAANNRLLLDTI (C-terminal amide) [SEQ ID NO 75] ?
> 100 nM
